The reported numbers originate from the supplement of paper PMC10338343.

# Tested on: MILI (PIWIL2) piRISC loaded with L1MC piRNA (26 nt);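 also: 1 nM active piRISC with 0.1 nM target library at 33 °C single turnover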
# Assay Details: pre-steady-state target cleavage rate (min^-1); guide: L1MC piRNA 5'p-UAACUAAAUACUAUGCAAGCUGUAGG; higher = faster piRNA-guided slicing of the target
# Condition Parameters: auxiliary factor: none (no GTSF1)
Assay Readout: pre-steady-state target cleavage rate
// keep it numeric: no unit symbol after the value

UCCUGGUACAGCUUGCGUAGUAUUUAGUUA; 0.014

Which value of pre-steady-state target cleavage rate has been reported for `UCCUGGAUGUGCUUGCAUAGUAUGUUAGUUA` in the records?
0.00452

Which value of pre-steady-state target cleavage rate has been reported for `UCCUCCUACAGCUUGGAUAGUAUAUAGUUA` in the records?
0.0033

Which value of pre-steady-state target cleavage rate has been reported for `UCCUGCUACAGCUUGCAUUGUAUUUAGUAA` in the records?
0.00356

Which value of pre-steady-state target cleavage rate has been reported for `UCCUGGAACAGCUUGCAAAGUAUAUAGUUA` in the records?
0.00404

Which value of pre-steady-state target cleavage rate has been reported for `UCCUGCUACAGCUUGCAUAGUAUAAAGUUA` in the records?
0.00349

Which value of pre-steady-state target cleavage rate has been reported for `UCCUGGAUGUCGAUAGCAUAGUAUUUAGUUA` in the records?
0.00341

###

# Test system: MILI (PIWIL2) piRISC loaded with L1MC piRNA (26 nt);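 also: 1 nM active piRISC with 0.1 nM target library at 33 °C single turnover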
# Assay Details: pre-steady-state target cleavage rate (min^-1); guide: L1MC piRNA 5'p-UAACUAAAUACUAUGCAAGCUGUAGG; higher = faster piRNA-guided slicing of the target
# Condition Parameters: auxiliary factor: 500 nM mouse GTSF1
Quick rule: pre-steady-state target cleavage rate of at least 0.03 means true, below that means false.

Illustrative cases are given below, each with its answer.
UCCUGGAUGUCGACGCAUAGUAUUUAGUUA; false
UCCUGGAACAGCUUGCAUAGUAUUUUGAAA; true
UCCUGGAACAGCUUGCUUAGUAUAUAGUUA; true
UCCUGCUACAGCUUCGUUAGUAUUUAGUUA; true
UCCUGGAUGUCGUAGCAUAGUAUUUUGUUA; true

Proceed to the following item.
Determine whether this sequence has pre-steady-state target cleavage rate no lower than 0.03: `UCCUGGAUGUCGAUGCAUAGUAUUUAGUAA`
true

###

# System: MILI (PIWIL2) piRISC loaded with L1MC piRNA (26 nt);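 also: 1 nM active piRISC with 0.1 nM target library at 33 °C single turnover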
# Assay Details: pre-steady-state target cleavage rate (min^-1); guide: L1MC piRNA 5'p-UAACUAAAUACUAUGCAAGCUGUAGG; higher = faster piRNA-guided slicing of the target
# Condition Parameters: auxiliary factor: 500 nM mouse GTSF1
Form field: pre-steady-state target cleavage rate (one value per entry).
// keep it numeric: no unit symbol after the value

UCCUGGAACAGGAUGCAUAGUAUUUUCAAA; 0.0202

Which value of pre-steady-state target cleavage rate has been reported for `UCCUCCUAGAGCUUGCAUAGUAUUUUGUUA` in the records?
0.251

Which value of pre-steady-state target cleavage rate has been reported for `UCCUCCUACAGGUUGCAUAGUAUUUAGAAA` in the records?
0.12

Which value of pre-steady-state target cleavage rate has been reported for `UCCUGCUACAGCUAGCAUAGUAUUUAGUAA` in the records?
0.212

###

# Test system: MILI (PIWIL2) piRISC loaded with L1MC piRNA (26 nt);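 also: 1 nM active piRISC with 0.1 nM target library at 33 °C single turnover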
# Assay Details: pre-steady-state target cleavage rate (min^-1); guide: L1MC piRNA 5'p-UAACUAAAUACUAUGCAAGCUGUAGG; higher = faster piRNA-guided slicing of the target
# Condition Parameters: auxiliary factor: 500 nM mouse GTSF1
Quick rule: pre-steady-state target cleavage rate of at least 0.07 means satisfied, below that means not satisfied.

UCCUGGAUGUCGAACCAUAGUAUUAUCAAA [g7:g15:cont:t1A]; not satisfied

Determine whether this sequence has pre-steady-state target cleavage rate no lower than 0.07: `UCCUCCAACAGCUUGCAUAGUAUUUAGAAA`
satisfied

Determine whether this sequence has pre-steady-state target cleavage rate no lower than 0.07: `UCCUGGAUGUCCAUGCAUUGUAUUUAGUUA`
not satisfied

Determine whether this sequence has pre-steady-state target cleavage rate no lower than 0.07: `UCCUGGAUGAGCUCUGCAUAGUAUUUAGUUA`
satisfied

###

# Test system: MILI (PIWIL2) piRISC loaded with piRNA #1 (26 nt);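 also: 1 nM active piRISC with 0.1 nM target library at 33 °C single turnover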
# Assay Details: pre-steady-state target cleavage rate (min^-1); guide: piRNA #1 5'p-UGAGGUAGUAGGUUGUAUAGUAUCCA; higher = faster piRNA-guided slicing of the target
# Condition Parameters: auxiliary factor: 500 nM mouse GTSF1
Quick rule: pre-steady-state target cleavage rate of at least 0.09 means MET, below that means NOT MET.

Illustrative cases are given below, each with its answer.
GGAGACCUAUCUAUACAACCUAGCUACCUCA; NOT MET
GGAGACGAUACUGUACAACCUACUACCUCA; MET
GGAGAGGAUACUAUACAACCUACUACCGUCA; NOT MET

Determine whether this sequence has pre-steady-state target cleavage rate no lower than 0.09: `GGAGACCUAUGAUAUCCAACCUACUACCUCA`
NOT MET

Determine whether this sequence has pre-steady-state target cleavage rate no lower than 0.09: `GGAGUGGAUACUAUACAACCUACUACUUCA`
MET

Determine whether this sequence has pre-steady-state target cleavage rate no lower than 0.09: `GGAGACCUAUCUAUACAACCAAGUACCUCA`
NOT MET

Determine whether this sequence has pre-steady-state target cleavage rate no lower than 0.09: `GGAGACCUAUGAUUACAAGCUACUACGUCA`
NOT MET

Determine whether this sequence has pre-steady-state target cleavage rate no lower than 0.09: `GGAGACCUAUCUAUACAACCUACUUGCUCA`
MET

###

# System: EfPiwi piRISC loaded with piRNA #1 (26 nt)
# Assay Details: pre-steady-state target cleavage rate (min^-1); auxiliary factor: 500 nM Ephydatia muelleri Gtsf1; guide: piRNA #1 5'p-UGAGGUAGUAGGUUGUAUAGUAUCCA; higher = faster piRNA-guided slicing of the target
Quick rule: pre-steady-state target cleavage rate of at least 0.006 means satisfied, below that means not satisfied.

Illustrative cases are given below, each with its answer.
GGAGACAAUACUAUACAACCUACUACCUCA; satisfied
GGAGACCUAACUAUACCAACCUACUACCUCA; not satisfied
GGAGAGGAUACUAUACAACCUAGUACCACA; not satisfied
GGAGACGAUACUUAUACAACCUACUACCUCA; satisfied

Proceed to the following item.
Determine whether this sequence has pre-steady-state target cleavage rate no lower than 0.006: `GGAGACGAUACUAUACAACCUACUAUCUCA`
satisfied

###

Form field: pre-steady-state target cleavage rate (one value per entry).
# Tested on: MILI (PIWIL2) piRISC loaded with L1MC piRNA (26 nt);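 also: 1 nM active piRISC with 0.1 nM target library at 33 °C single turnover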
# Assay Details: pre-steady-state target cleavage rate (min^-1); guide: L1MC piRNA 5'p-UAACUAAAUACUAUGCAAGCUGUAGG; MIWI and MILI are mouse PIWI proteins and EfPiwi is from a freshwater sponge; tags in brackets are library labels; higher = faster piRNA-guided slicing of the target
# Condition Parameters: auxiliary factor: 500 nM mouse GTSF1
// keep it numeric: no unit symbol after the value

Please state recorded pre-steady-state target cleavage rate (tested on MILI (PIWIL2) piRISC loaded with L1MC piRNA (26 nt)) of `UCCUGGAUGUGCAUGCAUAGUAUUAAGUUA`;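 also: 1 nM active piRISC with 0.1 nM target library at 33 °C single turnover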
0.122

Please state recorded pre-steady-state target cleavage rate (tested on MILI (PIWIL2) piRISC loaded with L1MC piRNA (26 nt)) of `UCCUGGAUGAGCUUGGAUAGUAUUAAGUUA`;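 also: 1 nM active piRISC with 0.1 nM target library at 33 °C single turnover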
0.0932

Please state recorded pre-steady-state target cleavage rate (tested on MILI (PIWIL2) piRISC loaded with L1MC piRNA (26 nt)) of `UCCUGGAUGGGCUUGCAUAGUAUUUAGUUA`;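 also: 1 nM active piRISC with 0.1 nM target library at 33 °C single turnover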
0.17

Please state recorded pre-steady-state target cleavage rate (tested on MILI (PIWIL2) piRISC loaded with L1MC piRNA (26 nt)) of UCCUGGAUGUCGUUGCAUAGUAUUUAGUUC [g2:g18:cont:t1C];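 also: 1 nM active piRISC with 0.1 nM target library at 33 °C single turnover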
0.0984

Please state recorded pre-steady-state target cleavage rate (tested on MILI (PIWIL2) piRISC loaded with L1MC piRNA (26 nt)) of `UCCUGGAUCACCAUGCAUAGUAUUUAGUUA`;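 also: 1 nM active piRISC with 0.1 nM target library at 33 °C single turnover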
0.14

Please state recorded pre-steady-state target cleavage rate (tested on MILI (PIWIL2) piRISC loaded with L1MC piRNA (26 nt)) of `UCCUGCUACAGGCUUGCAUAGUAUUUAGUUA`;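 also: 1 nM active piRISC with 0.1 nM target library at 33 °C single turnover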
0.241

Please state recorded pre-steady-state target cleavage rate (tested on MILI (PIWIL2) piRISC loaded with L1MC piRNA (26 nt)) of `UCCUGGAUGUGCUUGCAUAGUAUUUAUUA`;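 also: 1 nM active piRISC with 0.1 nM target library at 33 °C single turnover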
0.00911

Please state recorded pre-steady-state target cleavage rate (tested on MILI (PIWIL2) piRISC loaded with L1MC piRNA (26 nt)) of `UCCUGGAACAGCUUGCAUAGUAUUUAGUUUA`;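 also: 1 nM active piRISC with 0.1 nM target library at 33 °C single turnover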
0.321

Please state recorded pre-steady-state target cleavage rate (tested on MILI (PIWIL2) piRISC loaded with L1MC piRNA (26 nt)) of `UCCUCCUACAUGCUUGCAUAGUAUUUAGUUA`;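 also: 1 nM active piRISC with 0.1 nM target library at 33 °C single turnover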
0.149
